Tested on: Escherichia coli TOP10
Experiment: shrunken log2 fold change of peptide-encoding DNA abundance (4.5 h post-induction vs induction); higher = less antimicrobial activity (less host growth inhibition)
Conditions: time post-induction: 4.5 h; library: site-saturation at positions 5, 18, 19, 20
Entry flag: yes (1) if shrunken log2 fold change reaches 0.05; no (0) if it does not.

Reported shrunken log2 fold change at or above 0.05? RRIRSRPPRLPRPRPRPIVQPRP
yes (1)

# bool: shrunken log2 fold change of RRIRMRPPRLPRPRPRPEVKPRP >= 0.05
yes (1)

For this sequence, is measured shrunken log2 fold change 0.05 or higher? RRIRGRPPRLPRPRPRPPSTPRP
yes (1)

Check if shrunken log2 fold change >= 0.05 (inclusive). Item: RRIRFRPPRLPRPRPRPMRSPRP
yes (1)

Given the entry RRIRGRPPRLPRPRPRPGYAPRP , answer whether its shrunken log2 fold change meets or surpasses 0.05.
yes (1)

State whether the measured shrunken log2 fold change reaches 0.05, counting equality as reaching it, for RRIRERPPRLPRPRPRPNLAPRP
no (0)

Check this sequence for shrunken log2 fold change at or above 0.05: RRIRHRPPRLPRPRPRPVMSPRP
no (0)

Check this sequence for shrunken log2 fold change at or above 0.05: RRIRHRPPRLPRPRPRPEDYPRP
no (0)

Could you tell me if the measured shrunken log2 fold change of RRIRPRPPRLPRPRPRPSPKPRP reaches 0.05 or more?
yes (1)

Reported shrunken log2 fold change reaches at least 0.05 for RRIRLRPPRLPRPRPRPIWMPRP ?
no (0)

Given RRIRGRPPRLPRPRPRPMDMPRP , state whether its shrunken log2 fold change is at least 0.05.
no (0)

Please tell me: is the sequence RRIRPRPPRLPRPRPRPRFAPRP at or over 0.05 in terms of shrunken log2 fold change?
yes (1)

Does RRIRERPPRLPRPRPRPIFEPRP have a reported shrunken log2 fold change of at least 0.05?
yes (1)

Would you say RRIRCRPPRLPRPRPRPIGKPRP shows shrunken log2 fold change at minimum 0.05?
no (0)

====

Test system: Escherichia coli TOP10;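 further: peptides expressed intracellularly from a pBAD plasmid library in pooled LB shake-flask culture, induced with 0.3% L-arabinose, DNA abundance read by NGS, three biological replicates, DESeq2 with apeglm shrinkage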
Experiment: shrunken log2 fold change of peptide-encoding DNA abundance (4.5 h post-induction vs induction); higher = less antimicrobial activity (less host growth inhibition)
Conditions: time post-induction: 4.5 h; library: site-saturation at positions 5, 18, 19, 20
Label 0 (no) if shrunken log2 fold change falls below -0.3; label 1 (yes) in every other case.

Consider the following illustrative entries.
RRIRSRPPRLPRPRPRPKYLPRP
0 (no)
RRIRMRPPRLPRPRPRPAAAPRP
1 (yes)
RRIRHRPPRLPRPRPRPHKSPRP
0 (no)
RRIRTRPPRLPRPRPRPGLKPRP
1 (yes)
RRIRNRPPRLPRPRPRPFLCPRP
0 (no)

Does shrunken log2 fold change meet or surpass -0.3 for RRIRMRPPRLPRPRPRPSKKPRP ?
1 (yes)

Test whether the sequence RRIRKRPPRLPRPRPRPMDPPRP records shrunken log2 fold change of -0.3 or higher.
1 (yes)

I'd appreciate it if you could say whether RRIRLRPPRLPRPRPRPTYAPRP has shrunken log2 fold change at least equal to -0.3.
1 (yes)

Please indicate if the recorded shrunken log2 fold change for RRIRKRPPRLPRPRPRPEGTPRP meets or exceeds -0.3.
1 (yes)

Assess whether reported shrunken log2 fold change for RRIRSRPPRLPRPRPRPHTYPRP sits at -0.3 or higher.
1 (yes)
